- assay info: Plasma kinetics in rat following intravenous and oral administration
- Assay type: in vivo, Sprague Dawley rats
- measurement parameters: male, Sprague Dawley, rat, plasma, iv, 10 mg/kg, single intravenous 10 mg/kg, male rats, 24 h, mean; read-out: Mean Concentration in plasma
compounds and their reported concentration at 24 h
Field: numeric (ng/mL). Do not append units.

compound: N=C(N)NN=CC=Cc1cccn1-c1ccccc1Br [Compound 3, acetate]
concentration at 24 h / ng/mL: 2.82
//
compound: N=C(N)NN=CC=Cc1cccn1-c1ccc(Cl)cc1 [Compound 1, acetate]
concentration at 24 h / ng/mL: 20.2

input: Given the compound N=C(N)NN=CC=Cc1cccn1-c1ccccc1[N+](=O)[O-] [Compound 2, acetate] , what is its reported concentration at 24 h?
output: 3.95

====

- assay info: Plasma kinetics in rat following intravenous and oral administration
- Assay type: in vivo, Sprague Dawley rats
- measurement parameters: male, Sprague Dawley, rat, plasma, po, 10 mg/kg, oral 10 mg/kg, male rats, Geometric mean; read-out: MRT
compounds and their reported MRT
Field: numeric (h). Do not append units.

compound: N=C(N)NN=CC=Cc1cccn1-c1ccccc1Br [Compound 3, acetate]
test result: 6.83

--- query ---
input: Given the compound N=C(N)NN=CC=Cc1cccn1-c1ccccc1[N+](=O)[O-] [Compound 2, acetate] , what is its reported MRT?
output: 3.06

====

- assay info: Plasma kinetics in rat following intravenous and oral administration
- Type: in vivo, Sprague Dawley rats
- measurement parameters: male, Sprague Dawley, rat, plasma, iv, 10 mg/kg, single intravenous 10 mg/kg, male rats, 4 h, individual animals; read-out: Sample Concentration in plasma
- Method: This study determined the intravenous pharmacokinetics and oral bioavailability of compound 1 of the invention (see FIG. 1A, structure no. 1), compound 2 of the invention (see FIG. 1D, structure no. 19) and compound 3 of the invention (see FIG. 1I, structure no. 53) following administration to Sprague Dawley rats at a dose level of 10 mg/kg. […]
compounds and their reported concentration at 4 h
Field: numeric (ng/mL). Do not append units.

Take a look at these entries with their results.
compound: N=C(N)NN=CC=Cc1cccn1-c1ccccc1Br [Compound 3, acetate]
test result: 179

compound: N=C(N)NN=CC=Cc1cccn1-c1ccccc1[N+](=O)[O-] [Compound 2, acetate]
test result: 122

input: Given the compound N=C(N)NN=CC=Cc1cccn1-c1ccc(Cl)cc1 [Compound 1, acetate] , what is its reported concentration at 4 h?
output: 317

====

- assay info: Plasma kinetics in rat following intravenous and oral administration
- Assay type: in vivo, Sprague Dawley rats
- measurement parameters: male, Sprague Dawley, rat, plasma, iv, 10 mg/kg, intravenous 10 mg/kg, male rats, Median; read-out: C0
reported metric: C0 (ng/mL)
Field: numeric (ng/mL). Do not append units.

molecule: N=C(N)NN=CC=Cc1cccn1-c1ccccc1Br [Compound 3, acetate]
value units: ng/mL
test result: 5520
--
molecule: N=C(N)NN=CC=Cc1cccn1-c1ccc(Cl)cc1 [Compound 1, acetate]
value units: ng/mL
test result: 4070

input: Given the molecule N=C(N)NN=CC=Cc1cccn1-c1ccccc1[N+](=O)[O-] [Compound 2, acetate] , what is its reported C0?
output: 3020

====

- assay info: Plasma kinetics in rat following intravenous and oral administration
- Type: in vivo, Sprague Dawley rats
- measurement parameters: male, Sprague Dawley, rat, plasma, iv, 10 mg/kg, single intravenous 10 mg/kg, male rats, 0.1 h, mean of 3; read-out: Mean Concentration in plasma
reported metric: concentration at 0.1 h

Take a look at these entries with their results.
molecule: N=C(N)NN=CC=Cc1cccn1-c1ccccc1Br [Compound 3, acetate]
test result: 1100 ng/mL

molecule: N=C(N)NN=CC=Cc1cccn1-c1ccc(Cl)cc1 [Compound 1, acetate]
test result: 1120 ng/mL

--- query ---
input: Given the molecule N=C(N)NN=CC=Cc1cccn1-c1ccccc1[N+](=O)[O-] [Compound 2, acetate] , what is its reported concentration at 0.1 h?
output: 1340 ng/mL

====

- assay info: Plasma kinetics in rat following intravenous and oral administration
- Assay type: in vivo, Sprague Dawley rats
- measurement parameters: male, Sprague Dawley, rat, plasma, po, 10 mg/kg, oral 10 mg/kg, male rats, Arithmetic Mean; read-out: AUC0-t
reported metric: AUC(0-t) (µg·h/mL)
Field: numeric (µg·h/mL). Do not append units.

input: Given the compound N=C(N)NN=CC=Cc1cccn1-c1ccccc1[N+](=O)[O-] [Compound 2, acetate] , what is its reported AUC(0-t)?
output: 0.0674

input: Given the compound N=C(N)NN=CC=Cc1cccn1-c1ccccc1Br [Compound 3, acetate] , what is its reported AUC(0-t)?
output: 0.518

input: Given the compound N=C(N)NN=CC=Cc1cccn1-c1ccc(Cl)cc1 [Compound 1, acetate] , what is its reported AUC(0-t)?
output: 1.35

====

- assay info: Plasma kinetics in rat following intravenous and oral administration
- Type: in vivo, Sprague Dawley rats
- measurement parameters: male, Sprague Dawley, rat, plasma, iv, 10 mg/kg, single intravenous 10 mg/kg, male rats, 0.75 h, mean of 3; read-out: Mean Concentration in plasma
reported metric: concentration at 0.75 h (ng/mL)
Field: numeric (ng/mL). Do not append units.

Take a look at these entries with their results.
molecule: N=C(N)NN=CC=Cc1cccn1-c1ccccc1[N+](=O)[O-] [Compound 2, acetate]
reported metric: concentration at 0.75 h
test result: 278
--
molecule: N=C(N)NN=CC=Cc1cccn1-c1ccccc1Br [Compound 3, acetate]
reported metric: concentration at 0.75 h
test result: 465

--- query ---
input: Given the molecule N=C(N)NN=CC=Cc1cccn1-c1ccc(Cl)cc1 [Compound 1, acetate] , what is its reported concentration at 0.75 h?
output: 392

====

compounds and their reported concentration at 2.5 h
- assay info: Plasma kinetics in rat following intravenous and oral administration
- Format: in vivo, Sprague Dawley rats
- measurement parameters: male, Sprague Dawley, rat, plasma, po, 10 mg/kg, single oral 10 mg/kg, male rats, 2.5 h, individual animals; read-out: Sample Concentration in plasma
Field: numeric (ng/mL). Do not append units.

compound: N=C(N)NN=CC=Cc1cccn1-c1ccccc1[N+](=O)[O-] [Compound 2, acetate]
concentration at 2.5 h, ng/mL: 16.5

--- query ---
input: Given the compound N=C(N)NN=CC=Cc1cccn1-c1ccc(Cl)cc1 [Compound 1, acetate] , what is its reported concentration at 2.5 h?
output: 65.9

====

- assay info: Plasma kinetics in rat following intravenous and oral administration
- Type: in vivo, Sprague Dawley rats
- measurement parameters: male, Sprague Dawley, rat, plasma, po, 10 mg/kg, single oral 10 mg/kg, male rats, 0.25 h, individual animals; read-out: Sample Concentration in plasma
- Protocol: This study determined the intravenous pharmacokinetics and oral bioavailability of compound 1 of the invention (see FIG. 1A, structure no. 1), compound 2 of the invention (see FIG. 1D, structure no. 19) and compound 3 of the invention (see FIG. 1I, structure no. 53) following administration to Sprague Dawley rats at a dose level of 10 mg/kg. […]
reported metric: concentration at 0.25 h
Respond with the figure and its unit, in that order.

input: Given the compound N=C(N)NN=CC=Cc1cccn1-c1ccc(Cl)cc1 [Compound 1, acetate] , what is its reported concentration at 0.25 h?
output: 6.53 ng/mL

====

- assay info: Plasma kinetics in rat following intravenous and oral administration
- Assay type: in vivo, Sprague Dawley rats
- measurement parameters: male, Sprague Dawley, rat, plasma, po, 10 mg/kg, oral 10 mg/kg, male rats, individual animals; read-out: tmax
compounds and their reported Tmax
Field: numeric (h). Do not append units.

compound: N=C(N)NN=CC=Cc1cccn1-c1ccc(Cl)cc1 [Compound 1, acetate]
Tmax / h: 7.97

--- query ---
input: Given the compound N=C(N)NN=CC=Cc1cccn1-c1ccccc1Br [Compound 3, acetate] , what is its reported Tmax?
output: 4.02

====

- assay info: Plasma kinetics in rat following intravenous and oral administration
- Format: in vivo, Sprague Dawley rats
- measurement parameters: male, Sprague Dawley, rat, plasma, iv, 10 mg/kg, single intravenous 10 mg/kg, male rats, 0.05 h (3 min), mean of 3; read-out: Mean Concentration in plasma
reported metric: concentration at 0.05 h (ng/mL)
Field: numeric (ng/mL). Do not append units.

Take a look at these entries with their results.
compound: N=C(N)NN=CC=Cc1cccn1-c1ccccc1Br [Compound 3, acetate]
reported metric: concentration at 0.05 h
value units: ng/mL
test result: 3170
//
compound: N=C(N)NN=CC=Cc1cccn1-c1ccc(Cl)cc1 [Compound 1, acetate]
reported metric: concentration at 0.05 h
value units: ng/mL
test result: 2250

--- query ---
input: Given the compound N=C(N)NN=CC=Cc1cccn1-c1ccccc1[N+](=O)[O-] [Compound 2, acetate] , what is its reported concentration at 0.05 h?
output: 2350

====

- assay info: Plasma kinetics in rat following intravenous and oral administration
- Assay type: in vivo, Sprague Dawley rats
- measurement parameters: male, Sprague Dawley, rat, plasma, po, 10 mg/kg, single oral 10 mg/kg, male rats, 24 h, mean; LLOQ 2.50; read-out: Mean Concentration in plasma
reported metric: concentration at 24 h (ng/mL)
Field: numeric (ng/mL). Do not append units.

input: Given the molecule N=C(N)NN=CC=Cc1cccn1-c1ccc(Cl)cc1 [Compound 1, acetate] , what is its reported concentration at 24 h?
output: 7.68
